target: KRAS (G12D)::SOS1 (Homo sapiens, UniProt P01116, G12D); construct: KRAS (G12D) 1-169, N-terminal 6His-tag, C-terminal avi-tag; 6His-tag (N); Viva Biotech Ltd (SOS1); assay: KRAS::SOS1 AlphaScreen binding assay, KRAS G12D; conditions: read-out: KRASG12D IC50
Sequence (P01116 1-169 isoform P01116-2 G12D): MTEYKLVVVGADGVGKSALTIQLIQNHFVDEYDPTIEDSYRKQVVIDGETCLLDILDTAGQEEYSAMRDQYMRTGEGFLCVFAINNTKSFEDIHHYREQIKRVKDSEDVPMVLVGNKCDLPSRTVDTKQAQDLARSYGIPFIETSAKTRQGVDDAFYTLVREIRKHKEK
Known IC50 of a selection of molecules
Report only the number, with the unit nM understood.

Take a look at these entries with their results.
molecule	endpoint_unit	observed
C[C@H](Oc1cc(O[C@H]2CN(C)C(C)(C)C2)nc(-c2noc3c2CCC[C@@]32CCCc3sc(N)c(C#N)c32)n1)[C@@H]1CCCN1C [II-19]	nM	1
C[C@H](Oc1cc(Nc2ccncn2)nc(-c2noc3c2CCC[C@@]32CCCc3sc(N)c(C#N)c32)n1)[C@@H]1CCCN1C [II-15]	nM	3
COC[C@H](C)Nc1cc(O[C@@H](C)[C@@H]2CCCN2C)nc(-c2onc3c2CCC[C@@]32CCCc3sc(N)c(C#N)c32)n1 [Example I-5]	nM	12
C[C@H](Oc1cc(O[C@H]2CNC(C)(C)C2)nc(-c2noc3c2CCC[C@@]32CCCc3sc(N)c(C#N)c32)n1)[C@@H]1CCCN1C (single isomer, unassigned) [II-8]	nM	1
C[C@H](Oc1cc(Nc2nccs2)nc(-c2noc3c2CCC[C@@]32CCCc3sc(N)c(C#N)c32)n1)[C@@H]1CCCN1C [II-12]	nM	6

Let me check: C[C@H](Oc1cc(Oc2cccnc2)nc(-c2onc3c2CCC[C@@]32CCCc3sc(N)c(C#N)c32)n1)[C@@H]1CCCN1C [Example I-2] , system KRAS (G12D)::SOS1 (Homo sapiens, UniProt P01116, G12D), measured IC50 is 1
